Values from patent US20250011363A1

target: acetylcholine receptor; experiment: SPR, AchR immobilized on chip, peptide 10 uM
Reported Binding affinity (RU) by item:
Measure: Binding affinity (RU)

{"Binder": "KQFLR [5mer-149]", "Measured Result": "80 RU"}
{"Binder": "RSRQK [5mer-197]", "Measured Result": "68 RU"}
{"Binder": "KGIQK [5mer-496]", "Measured Result": "81 RU"}
{"Binder": "KVVTK [5mer-495]", "Measured Result": "52 RU"}
{"Binder": "KSFQR [5mer-166]", "Measured Result": "55 RU"}
{"Binder": "RSIRR [5mer-160]", "Measured Result": "53 RU"}
{"Binder": "RRIYR [5mer-467]", "Measured Result": "83 RU"}
{"Binder": "RQFLR [5mer-474]", "Measured Result": "80 RU"}
{"Binder": "RGVSK [5mer-452]", "Measured Result": "82 RU"}
{"Binder": "KRQRK [5mer-485]", "Measured Result": "58 RU"}
{"Binder": "KWRSK [5mer-165]", "Measured Result": "56 RU"}
{"Binder": "KGRCR [5mer-157]", "Measured Result": "78 RU"}
{"Binder": "KQIRR [5mer-491]", "Measured Result": "81 RU"}
{"Binder": "RLVCK [5mer-456]", "Measured Result": "52 RU"}
{"Binder": "KSYCK [5mer-481]", "Measured Result": "78 RU"}
{"Binder": "RQVLK [5mer-451]", "Measured Result": "53 RU"}
{"Binder": "KSIQR [5mer-171]", "Measured Result": "55 RU"}
